Sourced from BindingDB's records for doi:10.7270/Q2TX3CTT

Target: Glycogen synthase kinase-3 beta (Homo sapiens, UniProt P49841)
Sequence (P49841 whole entry): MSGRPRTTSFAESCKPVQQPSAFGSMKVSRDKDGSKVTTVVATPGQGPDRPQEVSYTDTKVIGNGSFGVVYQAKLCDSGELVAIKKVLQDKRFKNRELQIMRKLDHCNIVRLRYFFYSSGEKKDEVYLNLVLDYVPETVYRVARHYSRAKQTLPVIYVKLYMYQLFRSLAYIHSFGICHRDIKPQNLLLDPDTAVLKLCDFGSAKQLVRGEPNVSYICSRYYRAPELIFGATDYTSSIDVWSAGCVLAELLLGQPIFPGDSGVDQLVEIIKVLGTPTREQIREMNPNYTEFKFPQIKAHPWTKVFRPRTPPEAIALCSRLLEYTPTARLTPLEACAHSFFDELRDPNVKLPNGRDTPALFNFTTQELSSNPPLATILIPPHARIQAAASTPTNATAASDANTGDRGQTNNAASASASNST
Assay: concentration-response blocking of human GSK3B – biochemical, luminescence, cell-free homogeneous, retest, dose response (AID 434954)
MEASURE_NAME: EC50

Query: Which EC50 reading was recorded for the molecule `Cc1ccc(CSc2nnc(-c3ccncc3)o2)c(C)c1` ?
Result: 14.5 µM

Query: Which EC50 reading was recorded for the molecule `CCOC(=O)c1c(C)[nH]c(C)c1S(=O)(=O)N(C)CC(=O)Nc1ccccc1` ?
Result: > 300 µM

Query: Which EC50 reading was recorded for the molecule `C=CCNC(=O)c1ccc(OC)cc1OC` ?
Result: > 300 µM

Query: Which EC50 reading was recorded for the molecule `COc1ccc(-c2nnc3ccc(SCC(N)=O)nn23)cc1OC` ?
Result: > 300 µM

Query: Which EC50 reading was recorded for the molecule COC(=O)c1ccc(NC(C(=O)OC)C(C)C)c([N+](=O)[O-])c1 (stereo not given) ?
Result: > 300 µM

Query: Which EC50 reading was recorded for the molecule `COc1cccc(N=Nc2c(N)[nH][nH]c2=O)c1` ?
Result: 19.9 µM

Query: Which EC50 reading was recorded for the molecule `Cc1csc2c(=O)n(CCO)c(=O)[nH]c12` ?
Result: > 300 µM

Query: Which EC50 reading was recorded for the molecule `COc1cc(CNC=C2C(=O)NC(=O)N(C(C)(C)C)C2=O)cc(OC)c1` ?
Result: > 300 µM

Query: Which EC50 reading was recorded for the molecule `Nc1nc(Nc2ccccc2)nc(NCCO)c1[N+](=O)[O-]` ?
Result: 5.77 µM

Query: Which EC50 reading was recorded for the molecule CCc1ccc(NC(=O)C(NS(=O)(=O)c2cccc3nsnc23)c2ccccc2)cc1 (stereo not given) ?
Result: > 300 µM

---

Could you please report measured pEC50 for the items listed next?
Biological target: Glycogen synthase kinase-3 beta (Homo sapiens)
Assay: concentration-response blocking of human GSK3B – biochemical, luminescence, cell-free homogeneous, retest, dose response (AID 434954)
pEC50: −log10 of the molar value.

Query: Which pEC50 reading was recorded for the molecule `CC(C)CCn1c(CN2CCN(c3cccc(Cl)c3)CC2)nc2c1c(=O)n(C)c(=O)n2C` ?
Result: < 3.52

Query: Which pEC50 reading was recorded for the molecule `O=C(CN1C(=O)CCC1=O)Nc1ccc2c3c(cccc13)CC2` ?
Result: < 3.52

Query: Which pEC50 reading was recorded for the molecule `COc1ccc(-c2nn(-c3ccccc3)cc2CO)cc1OC` ?
Result: < 3.52

Query: Which pEC50 reading was recorded for the molecule `Cc1cccc(Nc2nc(NCc3ccco3)nc(N)c2[N+](=O)[O-])c1` ?
Result: 4.19

Query: Which pEC50 reading was recorded for the molecule `N#CC(=Cc1c[nH]nc1-c1ccc(Br)cc1)C(=O)O` ?
Result: < 3.52

Query: Which pEC50 reading was recorded for the molecule `CCc1cc(C(=O)c2ccc(OC)cc2)c(NC(=O)CN2CCN(C)CC2)s1` ?
Result: < 3.52

Query: Which pEC50 reading was recorded for the molecule `CCCN(CCC)Cc1c(C(=O)NN=Cc2ccoc2)nnn1-c1nonc1N` ?
Result: 5.07

Query: Which pEC50 reading was recorded for the molecule O=S1(=O)CC2SC(=S)N(c3ccccc3)C2C1 (configuration not stated) ?
Result: < 3.52

Query: Which pEC50 reading was recorded for the molecule `O=C(Nc1cccc2c1C(=O)NC2=O)c1ccccc1[N+](=O)[O-]` ?
Result: < 3.52

Query: Which pEC50 reading was recorded for the molecule `COc1ccccc1NC(=S)NC1CCCCCCCCCCC1` ?
Result: < 3.52

Query: Which pEC50 reading was recorded for the molecule `CC(=O)Nc1ccc(S(=O)(=O)NCc2ccc(C)n2C)cc1` ?
Result: < 3.52

Query: Which pEC50 reading was recorded for the molecule `Cc1cc2nc(-c3cccnc3O)[nH]c2cc1C` ?
Result: 5.09

Query: Which pEC50 reading was recorded for the molecule COc1cccc(/C=C2\Sc3ccc(C(=O)NCC4CCCO4)cc3N(C)C2=O)c1 (configuration not stated) ?
Result: < 3.52

Query: Which pEC50 reading was recorded for the molecule CCC1(C)NC(=O)N(CC(=O)Nc2sc3c(c2C(N)=O)CCC3)C1=O (configuration not stated) ?
Result: 4.52

Query: Which pEC50 reading was recorded for the molecule Cn1c(SCc2nnc(-c3ccc(F)cc3)o2)nnc1C1COc2ccccc2O1 (configuration not stated) ?
Result: 3.66

Query: Which pEC50 reading was recorded for the molecule `O=C1N=C(N2CCc3ccccc3C2)S/C1=C\c1ccc(O)cc1` ?
Result: < 3.52

Query: Which pEC50 reading was recorded for the molecule Cc1ccc(S(=O)(=O)N/C(=N/C(C)C(=O)O)c2ccccc2)cc1 (configuration not stated) ?
Result: < 3.52

Query: Which pEC50 reading was recorded for the molecule `CCOc1ccc(N2C(=O)S/C(=C\c3cccn3C)C2=O)cc1` ?
Result: < 3.52

Query: Which pEC50 reading was recorded for the molecule `O=C(c1ccncc1)N1CCN(C(=O)c2ccco2)CC1` ?
Result: < 3.52

Query: Which pEC50 reading was recorded for the molecule `Cc1cc(NC(=O)CSc2nnc(C3CC3)n2Cc2ccccc2)no1` ?
Result: < 3.52

Query: Which pEC50 reading was recorded for the molecule `COCCn1c(SCC(=O)NC(=O)NC(C)(C)C)nc2ccccc21` ?
Result: < 3.52

Query: Which pEC50 reading was recorded for the molecule `CN(C)CCCNc1nc(N)c([N+](=O)[O-])c(NCc2ccccc2)n1` ?
Result: 4.42

Query: Which pEC50 reading was recorded for the molecule `COc1ccc(-c2c(C)oc3ccc(C)cc23)cc1` ?
Result: < 3.52

Query: Which pEC50 reading was recorded for the molecule O=C(c1cccnc1)C1CCCN(Cc2nc(Cc3ccccc3)no2)C1 (configuration not stated) ?
Result: < 3.52

Query: Which pEC50 reading was recorded for the molecule `Cc1c([N+](=O)[O-])c2ccc(O)cc2n1-c1ccccc1` ?
Result: 5.67

Query: Which pEC50 reading was recorded for the molecule Cc1cccc(N2CCN(C(=O)c3csc4ccccc34)CC2C)c1 (configuration not stated) ?
Result: < 3.52

Query: Which pEC50 reading was recorded for the molecule `COc1ccc(C(=O)ON=C(C)c2ccccc2)cc1` ?
Result: 4.68

Query: Which pEC50 reading was recorded for the molecule `c1ccc(CNc2ncnc3scc(-c4cccs4)c23)nc1` ?
Result: < 3.52

Query: Which pEC50 reading was recorded for the molecule `COC(=O)c1ccc2nc(NC(=O)C3CC3)sc2c1` ?
Result: < 3.52

Query: Which pEC50 reading was recorded for the molecule `Cc1ccnc(SCCn2c(N3CCOCC3)nc3c2c(=O)[nH]c(=O)n3C)n1` ?
Result: < 3.52

Query: Which pEC50 reading was recorded for the molecule `CC1(C)CC(=O)C=C(Nc2ccccc2O)C1` ?
Result: < 3.52

Query: Which pEC50 reading was recorded for the molecule `CCCn1nc(NC(=O)c2cccs2)c2cc3cc(OC)ccc3nc21` ?
Result: 4.35

Query: Which pEC50 reading was recorded for the molecule `COc1ccc(Nc2nc3ccccc3s2)cc1` ?
Result: < 3.52

Query: Which pEC50 reading was recorded for the molecule `CCCOc1cc(C)nc(-c2ccccc2O)n1` ?
Result: < 3.52

Query: Which pEC50 reading was recorded for the molecule `COc1ccc(CC(=O)OCC(=O)Nc2ccc(Cl)cn2)cc1` ?
Result: 3.97

Query: Which pEC50 reading was recorded for the molecule `CC(=O)COc1cc(C)cc2oc(=O)cc(-c3ccccc3)c12` ?
Result: < 3.52

Query: Which pEC50 reading was recorded for the molecule `Cc1[nH]n(-c2ccccc2)c(=O)c1/C=N/NC(=O)COc1ccccc1[N+](=O)[O-]` ?
Result: < 3.52

Query: Which pEC50 reading was recorded for the molecule `O=C(O)c1cc(-c2ccc(C=NNC(=S)Nc3ccccc3)o2)ccc1Cl` ?
Result: < 3.52

Query: Which pEC50 reading was recorded for the molecule `Clc1ccc(CN=Nc2ncnc3nc[nH]c23)cc1` ?
Result: 4.69

Query: Which pEC50 reading was recorded for the molecule `Cc1ccc([N+](=O)[O-])cc1/N=C1\C(=O)Nc2ccccc21` ?
Result: < 3.52

Query: Which pEC50 reading was recorded for the molecule CC(CC(=O)Nc1ccc(F)c([N+](=O)[O-])c1)c1ccccc1 (configuration not stated) ?
Result: < 3.52

Query: Which pEC50 reading was recorded for the molecule `C[C@H]1[C@@H](c2ccccc2)O[C@@H](c2ccccc2Br)N1C` ?
Result: < 3.52

---

Molecular target: Glycogen synthase kinase-3 beta (Homo sapiens, UniProt P49841)
Test: concentration-response blocking of human GSK3B – biochemical, luminescence, cell-free homogeneous, retest, dose response (AID 434954)
Could you please report measured EC50 for the items listed next?

Query: Which EC50 reading was recorded for the compound `C=CCN(c1ccc(C(=O)Nc2ccc(C)c(C)c2)cc1)S(C)(=O)=O` ?
Result: > 300 µM

Query: Which EC50 reading was recorded for the compound Cc1ccnc(NC(=O)C(C)n2cc([N+](=O)[O-])cn2)c1 (stereo unspecified) ?
Result: 7.19 µM

Query: Which EC50 reading was recorded for the compound `Nc1nc(Nc2ccccc2)nc(NCc2ccccc2)c1[N+](=O)[O-]` ?
Result: 13.3 µM

Query: Which EC50 reading was recorded for the compound COc1ccccc1NC(=O)C(C)Nc1ccc(C)c(Cl)c1 (stereo unspecified) ?
Result: > 300 µM

Query: Which EC50 reading was recorded for the compound `COc1ccc2c(c1)-c1c(ssc1=S)C(C)(C)N2S(=O)(=O)c1ccc(C)cc1` ?
Result: > 300 µM

Query: Which EC50 reading was recorded for the compound O=C(COc1ccc2ccccc2c1)Nc1cccc2c1C(=O)NC2=O [MLS000375387] ?
Result: > 300 µM

Query: Which EC50 reading was recorded for the compound CSc1nnc2ccc(-c3cccs3)nn12 [SMR000324231] ?
Result: > 300 µM

Query: Which EC50 reading was recorded for the compound CN(C)C(CNC(=O)c1ccc2ccccc2c1)c1ccco1 (stereo unspecified) [SMR000377096] ?
Result: > 300 µM

Query: Which EC50 reading was recorded for the compound Oc1cc(-c2c[nH]c3ccccc23)c(O)n1-c1ccccc1 [MLS000121758] ?
Result: > 300 µM

Query: Which EC50 reading was recorded for the compound `O=C(Nc1nc2ccc(Cl)cc2s1)C1CC1` ?
Result: 43.8 µM

Query: Which EC50 reading was recorded for the compound `COc1cc2ncnc(Nc3ccc4c(c3)OCO4)c2cc1OC` ?
Result: > 300 µM
